MEASURED_METRIC: melting point

{"MOLECULE": "COc1ccc(S(=O)(=O)C2(CCCC#Cc3cc(C)ccc3C)SC(=O)NC2=O)cc1 (stereo not shown)", "MEASURED_METRIC": "melting point", "READING": "149 to 150 °C"}

Prompt line: Please give the measured melting point for this molecule: CCCCOc1ccc(S(=O)(=O)C2(CCCC#Cc3ccc(Cl)cc3)SC(=O)NC2=O)cc1 (stereo not shown)
Response line: 116 to 118 °C

Prompt line: Please give the measured melting point for this molecule: COc1ccc(S(=O)(=O)C2(CCCC#Cc3ccc(-n4cccc4)cc3)SC(=O)NC2=O)cc1 (stereo not shown)
Response line: 206 to 207 °C

Prompt line: Please give the measured melting point for this molecule: O=C1NC(=O)C(CCCC#Cc2ccc(-n3cccc3)cc2)(S(=O)(=O)c2ccc(I)cc2)S1 (stereo not shown)
Response line: 194 to 195 °C

Prompt line: Please give the measured melting point for this molecule: O=C1NC(=O)C(CCCC#Cc2ccc([N+](=O)[O-])cc2)(S(=O)(=O)c2ccc(I)cc2)S1 (stereo not shown)
Response line: 205 to 207 °C

Prompt line: Please give the measured melting point for this molecule: Cc1ccc([N+](=O)[O-])cc1C#CCCCC1(S(=O)(=O)c2ccc3ccccc3c2)SC(=O)NC1=O (stereo not shown)
Response line: 197 to 200 °C

Prompt line: Please give the measured melting point for this molecule: Cc1ccc(C#CCCCC2(S(=O)(=O)c3ccc(I)cc3)SC(=O)NC2=O)c(C)c1 (stereo not shown)
Response line: 153 to 154 °C

Prompt line: Please give the measured melting point for this molecule: COc1ccc(S(=O)(=O)C2(CCCC#Cc3ccc(C#N)cc3)SC(=O)NC2=O)cc1 (stereo not shown)
Response line: 174 to 178 °C

Prompt line: Please give the measured melting point for this molecule: Cc1cc(Cl)ccc1C#CCCCC1(S(=O)(=O)c2ccc(I)cc2)SC(=O)NC1=O (stereo not shown)
Response line: 93 to 99 °C

Prompt line: Please give the measured melting point for this molecule: Cc1ccc(S(=O)(=O)C2(CC#Cc3ccc(-c4ccccc4)cc3)SC(=O)NC2=O)cc1 (stereo not shown)
Response line: 179 to 180 °C

Prompt line: Please give the measured melting point for this molecule: Cc1ccc([N+](=O)[O-])cc1C#CCCCC1(S(=O)(=O)c2cccc3ccccc23)SC(=O)NC1=O (stereo not shown)
Response line: 168 to 172 °C

Prompt line: Please give the measured melting point for this molecule: Cc1ccc(C)c(C#CCCCC2(S(=O)(=O)c3ccc(I)cc3)SC(=O)NC2=O)c1 (stereo not shown)
Response line: 129 to 130 °C

Prompt line: Please give the measured melting point for this molecule: Cc1ccc([N+](=O)[O-])cc1C#CCCCC1(S(=O)(=O)c2ccc(Oc3ccccc3)cc2)SC(=O)NC1=O (stereo not shown)
Response line: 203 to 204 °C

Prompt line: Please give the measured melting point for this molecule: Cc1ccc(S(=O)(=O)C2(CCCC#Cc3ccc(S(C)(=O)=O)cc3)SC(=O)NC2=O)cc1 (stereo not shown)
Response line: 190 to 193 °C

Prompt line: Please give the measured melting point for this molecule: COc1ccc(S(=O)(=O)C2(CCCC#Cc3ccc(OC(F)(F)F)cc3)SC(=O)NC2=O)cc1 (stereo not shown)
Response line: 120 to 123 °C

Prompt line: Please give the measured melting point for this molecule: COc1ccc(S(=O)(=O)C2(CCCC#Cc3ccc(C)cc3C)SC(=O)NC2=O)cc1 (stereo not shown)
Response line: 155 to 156 °C
